- System: HeLa
- method description: Antiproliferative activity against human HeLa cells assessed as reduction in cell growth at 2 uM incubated for 72 hrs by CCK-8 assay relative to control
- Format: functional
inhibition at 2 µM vs 40%: at or above is 1, below is 0.

Before answering, review these 5 worked examples.
sample_smiles=CCn1c(SCc2ccc(C(=O)Nc3cc(F)ccc3N)cc2)nc2cc(OC)ccc2c1=O group=0
sample_smiles=CCCCn1c(SCc2ccc(C(=O)Nc3ccccc3N)cc2)nc2cc(Br)ccc2c1=O group=0
sample_smiles=Cc1cccc2c(=O)n(C)c(SCc3ccc(/C=C/C(=O)Nc4ccccc4N)cc3)nc12 group=0
sample_smiles=CCn1c(SCc2ccc(/C=C/C(=O)Nc3ccccc3N)cc2)nc2cc(Cl)ccc2c1=O group=0
sample_smiles=Nc1ccccc1NC(=O)c1ccc(CSc2nc3cc(Br)ccc3c(=O)n2-c2cccc(Cl)c2)cc1 group=1

Data request: Decide: is the reported value of inhibition at 2 µM for `CCCn1c(SCc2ccc(/C=C/C(=O)Nc3ccccc3N)cc2)nc2cc(Cl)ccc2c1=O` equal to or greater than 40%?
Data returned: 0

Data request: Please do the same for `COc1ccc2c(=O)n(-c3ccccc3Cl)c(SCc3ccc(C(=O)Nc4ccccc4N)cc3)nc2c1` as well.
Data returned: 1

Data request: Now consider `Cc1cccc2nc(SCc3ccc(/C=C/C(=O)Nc4ccccc4N)cc3)n(C)c(=O)c12` .
Data returned: 1

Data request: Record: `CC(=O)Nc1ccc(C(=O)Nc2ccccc2N)cc1`
Data returned: 0

---

- Test system: A-375
- method description: Antiproliferative activity against human A375 cells assessed as reduction in cell growth at 2 uM incubated for 72 hrs by CCK-8 assay relative to control
- Type: functional
- protocol conditions: A-375, 72 h
Listing of entries alongside the reported inhibition at 2 µM.
Dear colleague, please return just the value in %, with no unit written.

Answered cases to consult:
compound="COc1ccc2c(=O)n(CCCC[S+](C)[O-])c(SCc3ccc(/C=C/C(=O)Nc4ccccc4N)cc3)nc2c1 (stereo not given)" val=13.2
compound=Cc1ccc2c(=O)n(C)c(SCc3ccc(C(=O)Nc4ccccc4N)cc3)nc2c1 val=52.9
compound=Cc1cccc2nc(SCc3ccc(C(=O)Nc4ccccc4N)cc3)n(C)c(=O)c12 val=35.6

Data request: Dear colleague, I am looking for the recorded inhibition at 2 µM of the following compound: `Cc1ccc2c(=O)n(C)c(SCc3ccc(/C=C/C(=O)Nc4ccccc4N)cc3)nc2c1`
Data returned: 29

Data request: // next record `COc1ccc2c(=O)n(C)c(SCc3ccc(/C=C/C(=O)Nc4ccccc4N)cc3)nc2c1`
Data returned: 2.5

---

- Test system: A-375
- method description: Antiproliferative activity against human A375 cells assessed as reduction in cell growth at 2 uM incubated for 72 hrs by CCK-8 assay relative to control
- Format: functional
- protocol conditions: A-375, 72 h
Decide by inhibition at 2 µM: equal to or exceeding 30% means criterion met, less means criterion not met.

Check out these entries, answers already filled in.
sample_smiles=CCCCn1c(SCc2ccc(/C=C/C(=O)Nc3ccccc3N)cc2)nc2cc(F)ccc2c1=O group="criterion not met"
sample_smiles=CCn1c(SCc2ccc(C(=O)Nc3ccccc3N)cc2)nc2cc(F)ccc2c1=O group="criterion not met"
sample_smiles=Nc1ccccc1NC(=O)c1ccc(CSc2nc3cc(Br)ccc3c(=O)n2-c2cccc(Cl)c2)cc1 group="criterion not met"

Pending compound:
Data request: Evaluate `CCn1c(SCc2ccc(C(=O)Nc3cc(F)ccc3N)cc2)nc2cc(OC)ccc2c1=O` : inhibition at 2 µM at minimum 30%?
Data returned: criterion not met
